# System: wild-type HIV-2
# assay_procedure: Anti-HIV-2 activity in MT-4 cells, MTT method
# Type: cell-based
# conditions: read-out: EC50 HIV-2
outcome_measure: pEC50
// pEC50: -log10(molar conc.)

Problem: pEC50 lookup needed for "Cc1[nH]c2ccccc2c1CC(=O)N[C@@H](Cc1ccccc1)C(=O)N(C)c1ccccc1" , thanks.
Result: 5.42

----------
outcome_measure: CC50

Problem: Could you share what CC50 was measured for Cc1[nH]c2ccccc2c1CC(=O)N[C@@H](Cc1ccccc1)C(=O)N(C)c1ccccc1 [PF-74] , tested on MT-4 cells?
Result: > 294 µM

----------
# study_target: HIV-1 CA hexamer
# conditions: read-out: KD Hexamer; SPR, average of at least 3 replicates
outcome_measure: Kd (nM)
The response must be a number in nM with no trailing unit.

Problem: What measured Kd goes with "Cc1[nH]c2ccccc2c1CC(=O)N[C@@H](Cc1ccccc1)C(=O)N(C)c1ccccc1" ?
Result: 47
